TESTED_SYSTEM: UniProt P62942
Sequence (P62942 whole entry, species assumed): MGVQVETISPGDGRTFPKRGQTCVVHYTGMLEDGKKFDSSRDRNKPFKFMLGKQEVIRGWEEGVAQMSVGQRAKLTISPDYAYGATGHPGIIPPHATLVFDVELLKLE
TEST_METHOD_NOTES: Ki test: inhibition of peptidyl-prolyl isomerase (rotamase) activity, chymotrypsin-coupled assay
Assay type: biochemical
Reported Ki values follow for various compounds
MEASURED_QUANTITY: Ki (nM)

In [3]: df
Out[3]:
                                   compound  measurement_units  recorded_result
0  CC(C)(C)C(=O)C(=O)N1CCCCC1C(=O)C(CCc1ccccc1)CCc1ccccc1 (centres unmarked) [Compound 69]                 nM               49
1  O=C(C(=O)N1CCCCC1C(=O)CCCCCc1ccccc1)C1CCCCC1 (centres unmarked) [Compound 68]                 nM              284
